experimental.system: FGFR1 (UniProt P11362)
Sequence (P11362 whole entry, looked up): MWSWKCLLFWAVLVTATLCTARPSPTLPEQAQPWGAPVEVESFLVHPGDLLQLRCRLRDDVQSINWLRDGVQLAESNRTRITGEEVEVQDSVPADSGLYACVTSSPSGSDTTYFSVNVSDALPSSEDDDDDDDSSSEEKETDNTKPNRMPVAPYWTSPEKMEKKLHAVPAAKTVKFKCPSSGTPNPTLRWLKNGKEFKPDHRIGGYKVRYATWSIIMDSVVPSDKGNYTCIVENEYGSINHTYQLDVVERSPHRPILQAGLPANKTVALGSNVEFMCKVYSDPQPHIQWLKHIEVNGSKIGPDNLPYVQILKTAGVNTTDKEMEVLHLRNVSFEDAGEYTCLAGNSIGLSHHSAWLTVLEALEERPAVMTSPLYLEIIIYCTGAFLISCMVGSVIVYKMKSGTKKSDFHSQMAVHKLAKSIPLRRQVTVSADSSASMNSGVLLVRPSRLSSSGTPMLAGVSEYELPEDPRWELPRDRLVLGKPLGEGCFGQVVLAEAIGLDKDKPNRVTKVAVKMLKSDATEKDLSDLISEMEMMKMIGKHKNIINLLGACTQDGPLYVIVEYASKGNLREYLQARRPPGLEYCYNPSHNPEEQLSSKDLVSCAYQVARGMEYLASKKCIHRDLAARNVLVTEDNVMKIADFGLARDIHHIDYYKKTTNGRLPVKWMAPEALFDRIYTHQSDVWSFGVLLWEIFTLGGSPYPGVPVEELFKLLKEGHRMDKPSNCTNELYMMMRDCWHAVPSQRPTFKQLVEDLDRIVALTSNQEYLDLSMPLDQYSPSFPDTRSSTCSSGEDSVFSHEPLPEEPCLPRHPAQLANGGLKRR
protocol.details: phosphorylation enrichment, bacterial display (enrichment ratio); higher = better substrate or ligand; peptides without Tyr show the background;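 further: 11-residue human phosphosite peptides and single-mutation variants displayed on the E. coli surface, counted by deep sequencing, each peptide's frequency after selection divided by its frequency in the unselected input library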;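 further: frequency after pTyr selection over input frequency; kinase dosed for 20-30% of maximal phosphorylation in three min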
Range-based classes on measured phosphorylation enrichment: low (below 0.5), moderate (0.5 to below 0.7), high (0.7 or more)

{"seq.string": "TIQIMFGCDVG [HLA-A_Y123_Y123F]", "experimental.system": "FGFR1 (UniProt P11362)", "class.name": "moderate"}
{"seq.string": "SHGQDYLVGNK [GSTA1_Y147]", "experimental.system": "FGFR1 (UniProt P11362)", "class.name": "low"}
{"seq.string": "YVPSNYVAEDR [FRK_Y104_I100V]", "experimental.system": "FGFR1 (UniProt P11362)", "class.name": "low"}
{"seq.string": "WQQQSYLDFGI [CTNNB1_Y30_S33F]", "experimental.system": "FGFR1 (UniProt P11362)", "class.name": "high"}
{"seq.string": "AQMAMYFWEMS [TRPM4_Y577_G582S]", "experimental.system": "FGFR1 (UniProt P11362)", "class.name": "high"}
{"seq.string": "IRTDAYVQAMT [RPE65_Y89_R91Q]", "experimental.system": "FGFR1 (UniProt P11362)", "class.name": "low"}
{"seq.string": "KWRGQYDVAIE [BTK_Y425_K430E]", "experimental.system": "FGFR1 (UniProt P11362)", "class.name": "low"}
{"seq.string": "KLFFIYTSGTT [SLC27A4_Y245_YF]", "experimental.system": "FGFR1 (UniProt P11362)", "class.name": "moderate"}
{"seq.string": "LLKKIYLMLDN [STAT1_Y203_M202I]", "experimental.system": "FGFR1 (UniProt P11362)", "class.name": "high"}
{"seq.string": "GTVRDYPDFNP [ANXA3_Y15_S19N]", "experimental.system": "FGFR1 (UniProt P11362)", "class.name": "low"}
{"seq.string": "SPPILYSFYLN [FCRL6_Y239_D244N]", "experimental.system": "FGFR1 (UniProt P11362)", "class.name": "high"}
{"seq.string": "KKFFSYAWPFF [BRDT_Y291_H288Y_YF]", "experimental.system": "FGFR1 (UniProt P11362)", "class.name": "moderate"}
{"seq.string": "LNTFHHAGVSA [POLR2A_Y1109_Y1109H]", "experimental.system": "FGFR1 (UniProt P11362)", "class.name": "low"}
{"seq.string": "KNITEYCRHLI [RECQL_Y492_D495H]", "experimental.system": "FGFR1 (UniProt P11362)", "class.name": "moderate"}
{"seq.string": "TGTQLYGRFGS [ITGA2B_Y384]", "experimental.system": "FGFR1 (UniProt P11362)", "class.name": "low"}
{"seq.string": "PQQLWYTHEKK [UBTF_Y207]", "experimental.system": "FGFR1 (UniProt P11362)", "class.name": "moderate"}
{"seq.string": "TENAGYYFRVS", "experimental.system": "FGFR1 (UniProt P11362)", "class.name": "high"}
{"seq.string": "ASTDYYKRGDF [PDHA1_Y243]", "experimental.system": "FGFR1 (UniProt P11362)", "class.name": "low"}
{"seq.string": "PVRIAYGRPRG [SUGP2_Y985_D986G]", "experimental.system": "FGFR1 (UniProt P11362)", "class.name": "low"}
{"seq.string": "THPFLYLSLEI [MLH1_Y293]", "experimental.system": "FGFR1 (UniProt P11362)", "class.name": "moderate"}
{"seq.string": "YTGSTYRVGDT [FN1_Y106_N104S]", "experimental.system": "FGFR1 (UniProt P11362)", "class.name": "high"}
{"seq.string": "FLAATYPTVGQ [NF1_Y2508_YF]", "experimental.system": "FGFR1 (UniProt P11362)", "class.name": "low"}
{"seq.string": "HESEIYCKVCF [CSRP3_Y57_YF]", "experimental.system": "FGFR1 (UniProt P11362)", "class.name": "high"}
{"seq.string": "KPVDTYYDSTR [DYNC2H1_Y2230_M2227V]", "experimental.system": "FGFR1 (UniProt P11362)", "class.name": "high"}

Provenance of the data: the supplement of paper PMC10065799
